Tested on: FMC63
Sequence (as listed by the source): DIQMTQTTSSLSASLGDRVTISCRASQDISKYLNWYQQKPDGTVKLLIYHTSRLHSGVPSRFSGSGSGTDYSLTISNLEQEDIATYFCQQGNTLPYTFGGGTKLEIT
Sequence (as listed by the source): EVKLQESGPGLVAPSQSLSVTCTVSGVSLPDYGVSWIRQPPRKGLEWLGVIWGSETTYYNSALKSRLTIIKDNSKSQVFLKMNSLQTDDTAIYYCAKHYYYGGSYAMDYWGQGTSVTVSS
Experiment: CD19 variant binding to anti-CD19 antibody FMC63 (score)
Conditions: Table 1A, CD19 single mutants (positions of SEQ ID NO:2)

{"molecule": "W262G: CD19 variant (protein) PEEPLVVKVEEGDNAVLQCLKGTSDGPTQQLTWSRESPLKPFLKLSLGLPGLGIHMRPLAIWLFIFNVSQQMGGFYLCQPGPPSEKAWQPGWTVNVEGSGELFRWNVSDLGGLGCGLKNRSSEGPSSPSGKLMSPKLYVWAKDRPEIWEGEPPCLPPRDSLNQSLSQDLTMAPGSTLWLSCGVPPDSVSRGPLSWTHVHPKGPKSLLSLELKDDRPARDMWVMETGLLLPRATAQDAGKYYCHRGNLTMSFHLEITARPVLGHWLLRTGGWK", "FMC63 Binding Score": "6.4 ± .2"}
{"molecule": "A232V: CD19 variant (protein) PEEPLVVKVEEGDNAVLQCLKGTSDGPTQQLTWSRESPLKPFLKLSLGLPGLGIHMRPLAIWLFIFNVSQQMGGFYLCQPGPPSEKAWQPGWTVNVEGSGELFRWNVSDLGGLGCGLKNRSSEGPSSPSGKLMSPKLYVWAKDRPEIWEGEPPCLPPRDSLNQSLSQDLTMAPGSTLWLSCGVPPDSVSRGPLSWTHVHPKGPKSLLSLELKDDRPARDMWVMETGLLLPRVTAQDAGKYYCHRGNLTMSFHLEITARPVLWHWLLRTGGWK", "FMC63 Binding Score": "6.3 ± .2"}
{"molecule": "W264D: CD19 variant (protein) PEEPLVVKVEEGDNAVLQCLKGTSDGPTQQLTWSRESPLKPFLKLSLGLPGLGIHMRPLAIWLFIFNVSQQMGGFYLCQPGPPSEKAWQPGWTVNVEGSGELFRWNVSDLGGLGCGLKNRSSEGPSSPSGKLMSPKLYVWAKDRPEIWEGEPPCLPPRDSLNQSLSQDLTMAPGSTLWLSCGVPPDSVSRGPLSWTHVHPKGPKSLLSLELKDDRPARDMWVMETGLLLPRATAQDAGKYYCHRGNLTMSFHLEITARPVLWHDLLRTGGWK", "FMC63 Binding Score": "6.2 ± .6"}
{"molecule": "W264P: CD19 variant (protein) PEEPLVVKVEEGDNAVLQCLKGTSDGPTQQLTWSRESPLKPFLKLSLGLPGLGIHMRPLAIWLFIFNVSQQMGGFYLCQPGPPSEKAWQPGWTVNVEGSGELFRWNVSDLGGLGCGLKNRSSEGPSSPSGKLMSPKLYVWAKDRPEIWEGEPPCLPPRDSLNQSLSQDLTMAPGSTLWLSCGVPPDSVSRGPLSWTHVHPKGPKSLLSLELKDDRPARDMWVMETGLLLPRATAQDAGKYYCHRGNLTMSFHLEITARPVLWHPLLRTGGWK", "FMC63 Binding Score": "8.6 ± 1.5"}

Value source: patent US20220387487A1
